Below: a set of entries, each annotated with reported IC50.
System: 991263-137-R1-J2-PDC complex spheroid viability;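 also: spheroids exposed to compounds for 7 days before readout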
Assay: Anticancer human tumor 991263-137-R1-J2-PDC patient-derived colon adenocarcinoma cell line growth inhibition [POLQ]
Conditions: curve of first compound; second compound 0.1 µM
Procedure: Multicellular complex tumor spheroid response to Polymerase (POL) inhibitors (novobiocin, ART-558, RP6685) in combination with a variety of drugs and investigational agents in selected tumor cell lines The POL inhibitors (novobiocin, ART-558, and RP6685) were evaluated both individually and in combination with standard of care and investigational anticancer small molecules within a complex spheroid model of solid tumors. . […]

Below, 3 molecules whose answers are already recorded.
IC50 for Cn1ncnc1[C@H]1c2n[nH]c(=O)c3cc(F)cc(c23)N[C@@H]1c1ccc(F)cc1 + Nc1ccc(C#CCN(C(=O)Cc2ncc(C(F)(F)F)cc2C(F)(F)F)c2ccc(F)cc2)nn1 is > 0.1 µM

IC50 for CCc1cc2c(N3CCc4c(cc(Cn5ccnc5)cc4-c4cn(C)nc4C(F)(F)F)C3=O)ccnc2c(OC)n1 + Nc1ccc(C#CCN(C(=O)Cc2ncc(C(F)(F)F)cc2C(F)(F)F)c2ccc(F)cc2)nn1 is > 10 µM

IC50 for CNCc1ccc(-c2[nH]c3cc(F)cc4c3c2CCNC4=O)cc1 + Nc1ccc(C#CCN(C(=O)Cc2ncc(C(F)(F)F)cc2C(F)(F)F)c2ccc(F)cc2)nn1 is > 10 µM

Others:
IC50 for O=C(c1cc(Cc2n[nH]c(=O)c3ccccc23)ccc1F)N1CCN(C(=O)C2CC2)CC1 + COC1C(OC(N)=O)C(O)C(Oc2ccc3c(O)c(NC(=O)c4ccc(O)c(CC=C(C)C)c4)c(=O)oc3c2C)OC1(C)C is > 10 µM

IC50 for CC1COCCN1c1cc(-c2ccnn2C)c2ccnc(-c3ccn[nH]3)c2n1 (stereo not given) + Nc1ccc(C#CCN(C(=O)Cc2ncc(C(F)(F)F)cc2C(F)(F)F)c2ccc(F)cc2)nn1 is 1.61 µM

IC50 for COc1ccc([C@@H](O)c2cc(-c3ncnc4cc(N5CCOCC5)ccc34)c(F)cc2Cl)nn1 + Nc1ccc(C#CCN(C(=O)Cc2ncc(C(F)(F)F)cc2C(F)(F)F)c2ccc(F)cc2)nn1 is 4.8 µM

IC50 for CCc1cc2c(N3CCc4c(cc(Cn5ccnc5)cc4-c4cn(C)nc4C(F)(F)F)C3=O)cc(C)nc2c(OC)n1 + COC1C(OC(N)=O)C(O)C(Oc2ccc3c(O)c(NC(=O)c4ccc(O)c(CC=C(C)C)c4)c(=O)oc3c2C)OC1(C)C is > 10 µM

IC50 for O=C(Nc1ccc(O)c(NS(=O)(=O)c2ccc(F)cc2)c1)c1ccc(-c2ccccc2)cc1 + Nc1ccc(C#CCN(C(=O)Cc2ncc(C(F)(F)F)cc2C(F)(F)F)c2ccc(F)cc2)nn1 is > 10 µM

IC50 for COc1ccc([C@@H](O)c2cc(-c3ncnc4cc(N5CCOCC5)ccc34)c(F)cc2Cl)nn1 + Cc1cccc(N(C)C(=O)C2C(O)CCN2c2nc(C)cc(C(F)(F)F)c2C#N)c1 is 5.78 µM

IC50 for CCc1cc2c(N3CCc4c(cc(Cn5ccnc5)cc4-c4cn(C)nc4C(F)(F)F)C3=O)ccnc2c(OC)n1 + Cc1cccc(N(C)C(=O)C2C(O)CCN2c2nc(C)cc(C(F)(F)F)c2C#N)c1 is > 10 µM
